Where these numbers come from: patent US20130330346A1

# target_of_assay: T1, Human CXCR2 (human, UniProt P25025 1-360)
# T1 construct: Some cell lines carry an N-terminal 3xHA tag; also called hCXCR2; huCXCR2
# T1 sequence: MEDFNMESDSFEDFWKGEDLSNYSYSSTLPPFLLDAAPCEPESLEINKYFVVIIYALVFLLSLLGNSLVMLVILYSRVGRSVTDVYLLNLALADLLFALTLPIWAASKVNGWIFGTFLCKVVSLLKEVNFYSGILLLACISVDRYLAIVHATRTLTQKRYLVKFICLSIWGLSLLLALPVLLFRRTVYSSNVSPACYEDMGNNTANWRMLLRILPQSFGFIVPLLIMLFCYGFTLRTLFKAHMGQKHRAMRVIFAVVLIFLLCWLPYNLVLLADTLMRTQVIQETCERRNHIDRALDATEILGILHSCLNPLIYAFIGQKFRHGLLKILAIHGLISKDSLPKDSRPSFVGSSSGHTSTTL
# protocol_details: FACS, periplasmic extract vs FMAT Blue Gro-α
# Experimental: Periplasmic extracts (as described above) were analyzed on FACS for competition with Gro-α in binding to human CXCR2. 2×10⁵ cells were incubated with a ½ dilution of periplasmic extracts in FACS buffer (PBS+10% fetal bovine serum (Sigma, F7524)) for 30 minutes at 4° C. Then, an equal volume of 6 nM of FMAT Blue-labeled human Gro-α in FACS buffer was added and incubation was continued for another 30 minutes at 4° C. in the dark. […] Samples were then analyzed on a FACSarray (BD Biosciences).
parameter_measured: FACS Gro-α competition (% inhibition) (%)

binder="143A5 (VHH, Tested as periplasmic extract only; also called 143A05; not shown: C-terminal c-myc tag and His6 tag coded by the vector) VHH: KVQLVESGGGLVQAGGSLRLSCAASGRAFNYYVMAWFRQAQGKEREFVAAISTRGSMTKYSDSVQGRFTISRDNAKNTVYLHMNSLKPEDTAVYYCAADPRGSSWSFSSGGYDYWGQGTQVTVSS" parameter_measured="FACS Gro-α competition (% inhibition)" result_value=72.6
binder="139H2 (VHH, Tested as periplasmic extract only; also called 139H02; not shown: C-terminal c-myc tag and His6 tag coded by the vector) VHH: EVQLVESGGGLVQAGGSLRLSCAASGRTFSNYAMGWFRQATGKEREFVAAINKSGGNTHYAGSVKGRFTISRDNAKNTVYLQMNSLKPRDTAVYYCAASRTNPKPDYWGQGTQVTVSS" parameter_measured="FACS Gro-α competition (% inhibition)" result_value=50.5
